# EXPERIMENTAL SETUP: 323.15 K; 1000 kPa; Liquid; Vibrating tube method
PROPERTY NAME: mass density (kg/m3)
// note: answer is a bare numeric in kg/m3

Problem: Data request, read-out mass density, for CCn1cc[n+](C)c1.O=S(=O)([O-])C(F)(F)F [1-ethyl-3-methylimidazolium trifluoromethanesulfonate]
Solution: 1352.5

Problem: Another molecule to look at: CCCC[N+]1(C)CCCC1.O=S(=O)([N-]S(=O)(=O)C(F)(F)F)C(F)(F)F
Solution: 1380.4

Problem: Would you mind doing CCC[n+]1cccc(C)c1.O=S(=O)([N-]S(=O)(=O)C(F)(F)F)C(F)(F)F as well?
Solution: 1424.5

Problem: Then what about the molecule CCC[N+]1(C)CCCC1.O=S(=O)([N-]S(=O)(=O)C(F)(F)F)C(F)(F)F ?
Solution: 1409.4

Problem: Also CCC[N+]1(C)CCCCC1.O=S(=O)([N-]S(=O)(=O)C(F)(F)F)C(F)(F)F ?
Solution: 1388.3

The values you see were collected from the NIST ThermoML archive (doi:10.1021/je700670k).
